# System: VEGF induced increases in intracellular calcium levels in HUVEC (human umbilical vein endothelial cells)
# method-notes: VEGF Stimulated Ca++ signal assay (FLIPR)
# Type: cell-based
# stated-conditions: Homo sapiens, 10 μM, 30 min pre-incubation, VEGF 5 ng/mL
// reported inhibition at 10 µM for each item listed
Use % as the unit, but write only the number.

Example results:
| smiles-repr | inhibition at 10 µM, % |
| --- | --- |
| Cc1cc(NC=C2C(=O)Nc3ccccc32)n[nH]1 | 94.7 |
| N#Cc1c[nH]nc1NC=C1C(=O)Nc2ccccc21 | 35.8 |
| CC(C)(C)c1cc(NC=C2C(=O)Nc3ccccc32)no1 | 96.5 |
| Cc1cccc2c1C(=CNc1cc[nH]n1)C(=O)N2 | 97.6 |
| COC(=O)c1ccc(-c2cc(NC=C3C(=O)Nc4ccccc43)n[nH]2)cc1 | 56.9 |
| COc1ccc(-c2cc(NC=C3C(=O)Nc4ccccc43)[nH]n2)cc1 | 12.3 |

Qu. Read off the recorded inhibition at 10 µM for `O=C1Nc2ccccc2C1=CNc1n[nH]cc1C(=O)O`
Ans. -0.89

Qu. Read off the recorded inhibition at 10 µM for `O=C1Nc2ccccc2C1=CNc1cc(-c2cc(OCc3ccccc3)cc(OCc3ccccc3)c2)n[nH]1`
Ans. -12.9

Qu. Read off the recorded inhibition at 10 µM for `COc1ccc(-c2c(C)n[nH]c2NC=C2C(=O)Nc3ccccc32)cc1OC`
Ans. -1.47

----------
// reported inhibition at 10 µM for each item listed
# Test system: VEGF induced increases in intracellular calcium levels in HUVEC (human umbilical vein endothelial cells)
# method-notes: VEGF Stimulated Ca++ signal assay (FLIPR)
# Assay type: cell-based
# stated-conditions: Homo sapiens, 10 μM, 30 min pre-incubation, VEGF 5 ng/mL
Use % as the unit, but write only the number.

Example results:
| compound | result-unit | inhibition at 10 µM |
| --- | --- | --- |
| O=C1Nc2ccccc2C1=CNc1cc(-c2ccccc2)[nH]n1 [Example 2] | % | 90.5 |
| Cc1onc(NC=C2C(=O)Nc3ccccc32)c1Br [Example 42] | % | 0.3 |

Qu. Read off the recorded inhibition at 10 µM for CCOc1ccc(-c2cc(NC=C3C(=O)Nc4ccccc43)[nH]n2)cc1 [Example 38]
Ans. 70

Qu. Read off the recorded inhibition at 10 µM for O=C1Nc2ccccc2C1=CNc1cc(-c2ccco2)[nH]n1 [Example 4]
Ans. 92.6

----------
# measurement-target: cytoplasmic domain of the human VEGF receptor (VEGFR-2) (Homo sapiens, UniProt P35968)
# Construct: The cytoplasmic domain of the human VEGF receptor (VEGFR-2) was expressed as a Histidine-tagged fusion protein; His tag (Histidine-tagged fusion)
# Sequence (P35968 786-1356 limits assumed): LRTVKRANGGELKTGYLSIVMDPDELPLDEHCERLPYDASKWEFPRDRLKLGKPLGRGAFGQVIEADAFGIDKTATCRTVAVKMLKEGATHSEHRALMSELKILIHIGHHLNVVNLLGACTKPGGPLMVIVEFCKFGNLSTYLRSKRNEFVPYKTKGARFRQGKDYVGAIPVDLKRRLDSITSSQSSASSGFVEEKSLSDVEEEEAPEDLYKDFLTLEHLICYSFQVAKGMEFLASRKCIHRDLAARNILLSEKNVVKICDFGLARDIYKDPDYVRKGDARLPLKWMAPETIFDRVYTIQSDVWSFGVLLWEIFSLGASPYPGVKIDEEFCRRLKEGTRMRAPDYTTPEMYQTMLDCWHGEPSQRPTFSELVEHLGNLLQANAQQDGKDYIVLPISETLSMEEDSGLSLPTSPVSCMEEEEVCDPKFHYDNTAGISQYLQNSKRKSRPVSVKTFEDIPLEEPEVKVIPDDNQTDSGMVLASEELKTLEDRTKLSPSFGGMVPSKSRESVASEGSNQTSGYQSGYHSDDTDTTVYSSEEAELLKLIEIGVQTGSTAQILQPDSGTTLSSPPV
# method-notes: KDR Assay
# stated-conditions: His-VEGFR-2, 3.6 μM ATP, poly-Glu-Tyr (4:1)
Consider the cut-off 1000 nM. If the recorded IC50 is strictly smaller, the label is 1 (yes); if not, the label is 0 (no).

| smiles-repr | measurement-target | discrete-label |
| --- | --- | --- |
| COc1ccc(Cc2cc(NC=C3C(=O)Nc4ccccc43)n[nH]2)cc1 | cytoplasmic domain of the human VEGF receptor (VEGFR-2) (Homo sapiens, UniProt P35968) | 1 (yes) |
| Cc1cc(NC=C2C(=O)Nc3cc(F)ccc32)n[nH]1 | cytoplasmic domain of the human VEGF receptor (VEGFR-2) (Homo sapiens, UniProt P35968) | 1 (yes) |
| O=C1Nc2ccccc2C1=CNc1cc(-c2ccccc2)[nH]n1 | cytoplasmic domain of the human VEGF receptor (VEGFR-2) (Homo sapiens, UniProt P35968) | 1 (yes) |

Qu. Strictly below 1000 nM: is that where IC50 of `Cc1ccc(-c2cc(NC=C3C(=O)Nc4ccccc43)n[nH]2)cc1` sits?
Ans. 1 (yes)

Qu. Strictly below 1000 nM: is that where IC50 of `O=C1Nc2ccccc2C1=CNc1cc(-c2ccco2)[nH]n1` sits?
Ans. 1 (yes)

Qu. Strictly below 1000 nM: is that where IC50 of `Cc1cccc2c1C(=CNc1cc[nH]n1)C(=O)N2` sits?
Ans. 1 (yes)

Qu. Strictly below 1000 nM: is that where IC50 of `Cc1cc(C)cc(-c2cc(NC=C3C(=O)Nc4ccccc43)[nH]n2)c1` sits?
Ans. 0 (no)

Qu. Strictly below 1000 nM: is that where IC50 of `COc1ccccc1-c1cc(NC=C2C(=O)Nc3ccccc32)[nH]n1` sits?
Ans. 0 (no)

Qu. Strictly below 1000 nM: is that where IC50 of `O=C1Nc2cc(F)ccc2C1=CNc1cc[nH]n1` sits?
Ans. 0 (no)

Qu. Strictly below 1000 nM: is that where IC50 of `Cc1onc(NC=C2C(=O)Nc3ccccc32)c1Br` sits?
Ans. 0 (no)
